Test system: L6-myotubes
ASSAY METHOD TEXT: Glucose uptake in differentiated L6-myotubes (3H-2-deoxyglucose), compared to isoproterenol
Format: cell-based
PROTOCOL CONDITIONS: agonist 1×10^−5 M, 50 nM 3H-2-deoxyglucose, read-out: Biological example 1: glucose uptake, activity compared to that of isoproterenol
Structures can show the parent of a compound that is named as a salt.
List of Emax at 10 µM values.

Here are 6 compounds together with their reported answers.
COMPOUND | RECORDED MEASUREMENT
COC1CCC(CCC(C)(C)NC[C@H](O)c2cncc(F)c2)CC1 (some centres unmarked) [Example 22, dihydrochloride] | 25 to 50%
O[C@@H](CNC[C@H]1CC[C@H](OCc2ccccc2)CC1)c1cncc(F)c1 [Example 31] | 25 to 50%
CC(C)(CC[C@H]1CC[C@H](C(=O)O)CC1)NC[C@H](O)c1cccc(F)c1 [Example 117] | < 25%
O[C@@H](CNC[C@H]1CC[C@@H](O)CC1)c1cccc(F)c1 [Example 26] | 25 to 50%
CC(C)(NC[C@H](O)c1cccc(F)c1)[C@H]1CC[C@H](C(=O)O)CC1 [Example 101] | < 25%
CC(=O)N[C@H]1CC[C@H](CNC[C@H](O)c2cccc(F)c2)CC1 [Example 67] | 25 to 50%

# ---- query compound ----
Short answer for O=C(N[C@H]1CC[C@H](CNC[C@H](O)c2cncc(F)c2)CC1)c1ccccc1 [Example 70] : Emax at 10 µM was 25 to 50%

Provenance of the data: patent US20240390298A1
